Tested on: Key Grass and Sedge Weeds as well as Grass Crops
PROCEDURE_TEXT: Post-Emergent Test II (Table 6)
Format: in vivo
CONDITION: post-emergence, 336 h, ZEAMX: maize, corn (Zea mays), 70 g ai/ha, 14 days after application, read-out: Visual Growth Reduction (%) 14 Days After Application ZEAMX
OBSERVATION_TYPE: pest or weed control at 70 g/ha

Solved entries (count: 2):
>  <MOLECULAR_STRING>
C#Cc1c(-c2cc(N)c(Cl)c(C(=O)OC)n2)ccc(Cl)c1F

>  <pest or weed control at 70 g/ha>
0 to 29%

$$$$
>  <MOLECULAR_STRING>
COC(=O)c1nc(-c2ccc(F)c(F)c2C)cc(N)c1Cl

>  <pest or weed control at 70 g/ha>
0 to 29%

$$$$

// next item, pest or weed control at 70 g/ha requested
[Q] What value of pest or weed control at 70 g/ha has been reported for the following compound? `C=Cc1c(-c2cc(N)c(Cl)c(C(=O)O)n2)ccc(Cl)c1F`
[A] 0 to 29%
